- TEST: Cytotoxicity against human L02 cells assessed as reduction in cell viability
- Type: toxicity, cell-based
EXPERIMENTAL_READOUT: pIC50
// scale note: pIC50 = -log10(conc_M); give the bare number

Incoming: What pIC50 value was documented for this compound, COc1cc(C2c3cc4c(cc3C(OC3OC5COC(C)OC5C(O)C3O)C3COC(=O)C23)OCO4)cc(OC)c1O (stereo unspecified) ?
Outgoing: 5.46

====

- TARGET_SYSTEM: Epidermal growth factor receptor (Homo sapiens, UniProt P00533, L858R/T790M)
- Sequence (P00533 25-1210 T790M/L858R limits assumed): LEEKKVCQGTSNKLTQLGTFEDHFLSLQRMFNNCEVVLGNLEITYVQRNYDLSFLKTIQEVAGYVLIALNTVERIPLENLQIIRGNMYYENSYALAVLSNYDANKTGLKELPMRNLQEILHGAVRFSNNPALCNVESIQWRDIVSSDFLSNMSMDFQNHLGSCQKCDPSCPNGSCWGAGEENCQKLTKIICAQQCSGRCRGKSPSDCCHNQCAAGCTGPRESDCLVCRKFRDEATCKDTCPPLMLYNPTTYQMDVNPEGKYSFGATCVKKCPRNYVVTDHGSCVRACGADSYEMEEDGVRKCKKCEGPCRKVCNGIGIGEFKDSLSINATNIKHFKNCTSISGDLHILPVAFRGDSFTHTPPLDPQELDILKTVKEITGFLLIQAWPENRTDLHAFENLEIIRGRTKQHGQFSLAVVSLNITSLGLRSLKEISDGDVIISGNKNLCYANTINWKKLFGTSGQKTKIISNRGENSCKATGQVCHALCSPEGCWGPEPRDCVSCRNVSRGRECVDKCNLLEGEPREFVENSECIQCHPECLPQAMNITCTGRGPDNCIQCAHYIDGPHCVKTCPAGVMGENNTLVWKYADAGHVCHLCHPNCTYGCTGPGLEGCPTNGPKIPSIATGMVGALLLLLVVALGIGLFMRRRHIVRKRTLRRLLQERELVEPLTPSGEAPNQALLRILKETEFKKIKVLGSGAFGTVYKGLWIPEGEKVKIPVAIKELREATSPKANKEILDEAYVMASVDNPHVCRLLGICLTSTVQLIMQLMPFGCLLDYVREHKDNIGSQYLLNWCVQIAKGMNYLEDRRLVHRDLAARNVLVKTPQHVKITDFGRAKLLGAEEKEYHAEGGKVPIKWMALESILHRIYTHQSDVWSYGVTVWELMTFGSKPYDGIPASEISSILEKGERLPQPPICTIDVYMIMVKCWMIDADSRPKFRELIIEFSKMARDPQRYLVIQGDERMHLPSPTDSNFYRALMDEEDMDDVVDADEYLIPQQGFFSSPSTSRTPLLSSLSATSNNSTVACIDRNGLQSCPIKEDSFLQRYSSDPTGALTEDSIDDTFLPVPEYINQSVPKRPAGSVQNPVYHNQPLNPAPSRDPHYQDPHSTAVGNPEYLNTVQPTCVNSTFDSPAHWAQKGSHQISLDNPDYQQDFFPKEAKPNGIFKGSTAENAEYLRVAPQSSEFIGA
- TEST: Inhibition of EGFR T790M/L858R mutant (unknown origin)
EXPERIMENTAL_READOUT: IC50 (nM)
Report as a plain number; the unit nM is understood.

Incoming: What IC50 value was documented for this molecule, O=C(N/N=C/c1cnc(N2CCCC2)nc1)Nc1cc2c(Nc3ccc(F)c(Cl)c3)ncnc2cc1O[C@@H]1CCOC1 ?
Outgoing: 8.4
